Hello, the source for this data is the kinase profiling compilation of Christmann-Franck et al. (2016), in case you need it.

Biological target: EPHA7 (human) (UniProt Q15375)
Sequence (Q15375 whole entry, looked up): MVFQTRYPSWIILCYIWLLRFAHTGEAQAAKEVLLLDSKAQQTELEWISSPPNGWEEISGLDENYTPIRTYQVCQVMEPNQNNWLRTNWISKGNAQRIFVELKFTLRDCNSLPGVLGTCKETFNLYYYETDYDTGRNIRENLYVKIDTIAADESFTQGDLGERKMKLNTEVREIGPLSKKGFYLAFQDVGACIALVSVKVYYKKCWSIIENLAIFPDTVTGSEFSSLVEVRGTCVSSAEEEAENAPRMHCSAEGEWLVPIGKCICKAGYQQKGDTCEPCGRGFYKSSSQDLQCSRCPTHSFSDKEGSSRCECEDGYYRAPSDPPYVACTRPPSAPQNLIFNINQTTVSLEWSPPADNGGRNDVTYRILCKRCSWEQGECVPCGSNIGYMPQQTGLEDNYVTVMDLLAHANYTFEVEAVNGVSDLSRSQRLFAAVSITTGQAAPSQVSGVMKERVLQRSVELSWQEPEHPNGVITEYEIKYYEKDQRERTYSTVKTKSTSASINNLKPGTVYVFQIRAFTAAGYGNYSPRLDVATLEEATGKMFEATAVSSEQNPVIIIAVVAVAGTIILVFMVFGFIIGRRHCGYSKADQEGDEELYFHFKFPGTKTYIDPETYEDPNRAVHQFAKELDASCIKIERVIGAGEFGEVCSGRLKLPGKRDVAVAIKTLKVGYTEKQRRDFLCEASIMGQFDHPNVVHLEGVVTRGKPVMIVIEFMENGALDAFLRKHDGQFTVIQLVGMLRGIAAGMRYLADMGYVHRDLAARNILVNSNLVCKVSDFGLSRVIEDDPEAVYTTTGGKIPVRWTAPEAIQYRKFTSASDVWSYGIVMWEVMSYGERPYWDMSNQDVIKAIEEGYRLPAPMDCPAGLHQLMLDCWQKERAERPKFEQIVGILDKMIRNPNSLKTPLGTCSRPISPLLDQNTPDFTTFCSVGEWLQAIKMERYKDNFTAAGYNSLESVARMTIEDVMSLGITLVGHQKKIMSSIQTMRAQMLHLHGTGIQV
Experiment: radiometric filter-binding kinase assay, Kinase HotSpot
Conditions: compound 0.5 µM; ATP 10 µM

{"Mol smiles": "COc1cc(Nc2c(C#N)cnc3cc(OCCCN4CCN(C)CC4)c(OC)cc23)c(Cl)cc1Cl", "residual activity / %": 77.2}
{"Mol smiles": "N#Cc1c[nH]c2c[nH]/c(=N\\Cc3cccnc3)cc2/c1=N\\c1ccc(F)c(Cl)c1", "residual activity / %": 83.7}
{"Mol smiles": "CN(C)CCCn1cc(C2=C(c3c[nH]c4ccccc34)C(=O)NC2=O)c2ccccc21", "residual activity / %": 97}
{"Mol smiles": "COc1ccc(S(=O)(=O)N(CCO)c2ccccc2CN(C)C/C=C/c2ccc(Cl)cc2)cc1", "residual activity / %": 98.9}
{"Mol smiles": "CO[C@@H]1[C@H](N(C)C(=O)c2ccccc2)C[C@H]2O[C@]1(C)n1c3ccccc3c3c4c(c5c6ccccc6n2c5c31)C(=O)NC4", "residual activity / %": 87.2}
{"Mol smiles": "COc1cc2ncnc(Nc3ccc(OCc4ccccc4)cc3)c2cc1OC", "residual activity / %": 97}
{"Mol smiles": "O=C1Nc2ccc(Br)cc2/C1=C\\c1cc2c([nH]1)CCCC2", "residual activity / %": 85.3}
{"Mol smiles": "CN(C)c1ccc(/C=C2\\C(=O)Nc3ccccc32)cc1", "residual activity / %": 99.1}
{"Mol smiles": "O=C1C(Cl)=C(N2C(=O)CCC2=O)C(=O)c2ccccc21", "residual activity / %": 106}
